# Target Or Test System: ClpC1NTD (Mycolicibacterium smegmatis, UniProt A0R574)
# Construct: M. smegmatis clpC1 NTD (1-148) was cloned in pET21a; hexahistidine (C)
# Sequence (A0R574 1-148): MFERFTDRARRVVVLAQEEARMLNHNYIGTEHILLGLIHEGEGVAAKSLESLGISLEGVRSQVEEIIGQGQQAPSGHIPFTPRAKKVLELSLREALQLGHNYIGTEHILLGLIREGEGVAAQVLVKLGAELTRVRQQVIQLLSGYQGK
# Method Description: Binding affinity by isothermal titration calorimetry (ITC)
# Condition Info: ITC at 25 °C, 50 mM Tris pH 7.5, 100 mM NaCl, 2% DMSO, single binding site model
pKd: −log10 of the molar value. Starred links: 1 amine or outer side, 2 acyl side, 3 side chain; linkers in the order of their positions; H or OH if unused. Non-standard residues stand in square brackets, D forms with d. Residues, ends and D or L forms follow the SMILES beside them. *: point of attachment. Phe(βR-OMe) = CO[C@H](c1ccccc1)[C@H](N)C(=O)O; X2 = CN([C@@H](CCCO)C(=O)[*:2])[*:1]; NMeE = CN[C@@H](CCC(=O)O)C(=O)O; NMeL = CN[C@@H](CC(C)C)C(=O)O; NMeK = CN[C@@H](CCCCN)C(=O)O; tBu = CC(C)(C)*; NHPr = CCCN*
Measured pKd, listed per entry for reference.
Quantity Measured: pKd

• CC[C@H](C)[C@@H]1NC(=O)[C@H](CC(C)C)N(C)C(=O)[C@H](C(C)C)NC(=O)[C@H](Cc2ccccc2)NC(=O)[C@H](C)NC(=O)[C@H](CCCO)N(C)C(=O)[C@H](Cc2c[nH]c3ccccc23)NC1=O [CylcoA_D4] (cyclo(AFV[NMeL]IW[X2])) = 3.97
• CC[C@H](C)[C@@H]1NC(=O)[C@H](CC(C)C)N(C)C(=O)[C@H](C(C)C)NC(=O)[C@H](Cc2ccccc2)NC(=O)[C@H](C)NC(=O)[C@H](CCCO)N(C)C(=O)[C@H](Cc2ccc(O)cc2)NC1=O [CycloA_D5b] (cyclo(V[NMeL]IY[X2]AF)) = 3.49
• CC[C@H](C)[C@@H]1NC(=O)[C@H](CC(C)C)N(C)C(=O)[C@H](C(C)C)NC(=O)[C@H]([C@H](OC)c2ccccc2)NC(=O)[C@H](C)NC(=O)[C@H](CCCCN)N(C)C(=O)[C@H](Cc2c[nH]c3ccccc23)NC1=O [CycloA_D9] (cyclo(W[NMeK]A[Phe(βR-OMe)]V[NMeL]I)) = 5.55
• CC[C@H](C)[C@@H]1NC(=O)[C@H](CC(C)C)N(C)C(=O)[C@H](C(C)C)NC(=O)[C@H](Cc2ccccc2)NC(=O)[C@H](C)NC(=O)[C@H](CCCO)N(C)C(=O)[C@H](Cc2ccc(OC(C)(C)C)cc2)NC1=O [CycloA_D5a] (cyclo(V[NMeL]IY(tBu)[X2]AF)) = 3.89
• CC[C@H](C)[C@@H]1NC(=O)[C@H](CC(C)C)N(C)C(=O)[C@H](C(C)C)NC(=O)[C@H](Cc2ccccc2)NC(=O)[C@H](C)NC(=O)[C@H](CCCCN)N(C)C(=O)[C@H](Cc2c[nH]c3ccccc23)NC1=O [CycloA_D6] (cyclo(AFV[NMeL]IW[NMeK])) = 4.83
• CC[C@H](C)[C@@H]1NC(=O)[C@H](CC(C)C)N(C)C(=O)[C@H](C(C)C)NC(=O)[C@H](Cc2ccccc2)NC(=O)[C@H](C)NC(=O)[C@H](CCC(=O)O)N(C)C(=O)[C@H](Cc2c[nH]c3ccccc23)NC1=O [CycloA_D2] (cyclo(AFV[NMeL]IW[NMeE])) = 3.65
• CCCNC(=O)CC[C@H]1C(=O)N[C@@H](C)C(=O)N[C@@H](Cc2ccccc2)C(=O)N[C@@H](C(C)C)C(=O)N(C)[C@@H](CC(C)C)C(=O)N[C@@H]([C@@H](C)CC)C(=O)N[C@@H](Cc2c[nH]c3ccccc23)C(=O)N1C [CycloA_D7] (cyclo(AFV[NMeL]IW[NMeE](NHPr))) = 4.57
